Target: recombinant human Meningioma Expressed Antigen 5 (MGEA5), also referred to as O-GlcNAcase (OGA) (Homo sapiens, UniProt O60502)
Construct: Full length OGA enzyme was purchased at OriGene (cat # TP322411); purchased OriGene TP322411
Sequence (O60502 1-916): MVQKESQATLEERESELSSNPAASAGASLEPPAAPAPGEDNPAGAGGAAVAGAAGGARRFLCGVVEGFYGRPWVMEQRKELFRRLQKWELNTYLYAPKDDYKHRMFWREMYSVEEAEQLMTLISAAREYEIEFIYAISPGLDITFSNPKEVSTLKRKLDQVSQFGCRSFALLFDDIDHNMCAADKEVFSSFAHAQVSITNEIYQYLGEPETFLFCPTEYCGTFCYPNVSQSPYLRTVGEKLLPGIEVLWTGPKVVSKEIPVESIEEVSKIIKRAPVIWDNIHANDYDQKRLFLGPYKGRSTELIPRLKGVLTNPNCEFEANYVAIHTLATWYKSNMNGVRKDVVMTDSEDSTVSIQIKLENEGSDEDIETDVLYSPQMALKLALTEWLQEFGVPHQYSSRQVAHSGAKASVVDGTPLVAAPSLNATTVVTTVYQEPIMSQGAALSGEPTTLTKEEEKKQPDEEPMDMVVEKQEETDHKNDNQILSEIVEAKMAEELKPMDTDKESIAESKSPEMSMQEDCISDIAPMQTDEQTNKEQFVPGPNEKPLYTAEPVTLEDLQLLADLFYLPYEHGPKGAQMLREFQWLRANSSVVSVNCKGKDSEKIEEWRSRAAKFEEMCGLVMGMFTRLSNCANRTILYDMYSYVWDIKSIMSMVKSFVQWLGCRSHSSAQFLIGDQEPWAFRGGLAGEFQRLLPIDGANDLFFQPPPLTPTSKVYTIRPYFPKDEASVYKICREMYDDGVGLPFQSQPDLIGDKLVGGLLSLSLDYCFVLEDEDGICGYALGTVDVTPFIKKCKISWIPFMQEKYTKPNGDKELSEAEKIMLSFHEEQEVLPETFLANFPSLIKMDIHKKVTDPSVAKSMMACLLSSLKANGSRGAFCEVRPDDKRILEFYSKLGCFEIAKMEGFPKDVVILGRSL
Assay: OGA biochemical assay: inhibition of FM-GlcNAc hydrolysis, fluorescence; protocol A (10 nM OGA, 1 h) or protocol B (2 nM OGA, 6 h)
Details: Enzymatic protocol B (2 nM OGA, 6 h); read-out: Enzymatic hOGA; pIC50 (converted)
log10 of IC50 listing for selected molecules.
readout.kind: log10 of IC50 (log10 of the value in µM)

>>> reported_result("Cc1cc(OCC2(F)CCCN(Cc3ccc4nccnc4c3)C2)cc(C)n1 (racemic)")
0.38
>>> reported_result("CC(=O)Nc1ncc(CN2CCC(F)C(COc3cc(C)nc(C)n3)C2)s1 (centres unmarked)")
-1.20
>>> reported_result("CC(=O)Nc1ncc(CN2CCC(Cc3nccc(C)c3F)C2)s1 (centres unmarked)")
-2.04
>>> reported_result("COc1nc(C)ccc1C[C@H]1CCCN(Cc2cnc(NC(C)=O)s2)C1")
-2.86
>>> reported_result("COc1ccc(C)nc1C[C@H]1CCN(Cc2cnc(NC(C)=O)s2)C1")
-1.34
>>> reported_result("CC(=O)Nc1ncc(CN2CCC[C@@H](Cc3cc(C)nc(C)c3)[C@H]2C)s1 (racemic) [compound 169]")
-1.06
>>> reported_result("CC(=O)Nc1ncc(CN2CCCC(c3cc(C)nc(C)c3)C2)s1 (single isomer, unassigned) [compound 131]")
-0.01
>>> reported_result("COc1nc(C)ccc1CC1CCN(Cc2cnc(NC(C)=O)s2)C1 (centres unmarked)")
-1.73
>>> reported_result("CC(=O)Nc1ncc(CN2CC[C@@H](Nc3cc(C)nc(C)c3)C2)s1")
-0.67
>>> reported_result("CC(=O)Nc1ncc(CN2CC[C@H](Cc3ncccc3C#N)C2)s1")
-1.57
>>> reported_result("Cc1cc(NC2CCCN(C(C)c3ccc4nccnc4c3)C2)cc(C)n1 (racemic)")
-1.36
>>> reported_result("Cc1cc(CC2CCCN(C(C)c3ccc4scnc4c3)C2)cc(C)n1 (racemic)")
-2.20
>>> reported_result("CC(=O)Nc1ncc(CN2CC[C@H](Cc3cncnc3)C2)s1")
-1.26
>>> reported_result("Cc1cc([C@@H]2CCCN([C@@H](C)c3ccc4sc(C)nc4c3)C2)cc(C)n1")
0.54
>>> reported_result("CC(=O)Nc1ncc(CN2CCCC(OCc3cc(C)nc(C)c3)C2)s1 (centres unmarked)")
-1.20
>>> reported_result("CC(=O)Nc1ncc(CN2CCCC(Nc3ccnc(C)c3)C2)s1 (racemic)")
-2.22
